Where do these numbers come from? They come from patent US20260337190A1.

experiment: Dynamic solubility in water, SGF, FaSSIF and FeSSIF; assay type: physicochemical; conditions: H2O, 4 hours, 37 °C
Structures can show the parent of a compound that is named as a salt.
MEASUREMENT TYPE: pH of filtrate
I only need the number, thanks.

Known pH of filtrate results, listed for orientation:
COMPOUND: Cc1nc(N[C@H](C)c2cccc(S(F)(F)(F)(F)F)c2)c2cn(C3(CF)CC3)c(=O)cc2n1 [Crystal form A of fumarate salt]
pH of filtrate: 4.2
//
COMPOUND: Cc1nc(N[C@H](C)c2cccc(S(F)(F)(F)(F)F)c2)c2cn(C3(CF)CC3)c(=O)cc2n1 [Crystal form A of compound of formula I]
pH of filtrate: 6.0
//
COMPOUND: Cc1nc(N[C@H](C)c2cccc(S(F)(F)(F)(F)F)c2)c2cn(C3(CF)CC3)c(=O)cc2n1 [Crystal form A of ethanesulfonate salt]
pH of filtrate: 3.1
//
COMPOUND: Cc1nc(N[C@H](C)c2cccc(S(F)(F)(F)(F)F)c2)c2cn(C3(CF)CC3)c(=O)cc2n1 [Crystal form B of citrate salt]
pH of filtrate: 3.5

Fill in: pH of filtrate of Cc1nc(N[C@H](C)c2cccc(S(F)(F)(F)(F)F)c2)c2cn(C3(CF)CC3)c(=O)cc2n1 [Crystal form A of methanesulfonate salt] is ___
3.5

###

experiment: Dynamic solubility in water, SGF, FaSSIF and FeSSIF; type: physicochemical; conditions: FaSSIF, 24 hours, 37 °C
Counter-ions that a name gives are not always drawn.
Listed below: pH of filtrate values for each entry.

Known pH of filtrate results, listed for orientation:
MOLECULE: Cc1nc(N[C@H](C)c2cccc(S(F)(F)(F)(F)F)c2)c2cn(C3(CF)CC3)c(=O)cc2n1 [Crystal form A of compound of formula I]
OBSERVED MEASUREMENT: 6.4
--
MOLECULE: Cc1nc(N[C@H](C)c2cccc(S(F)(F)(F)(F)F)c2)c2cn(C3(CF)CC3)c(=O)cc2n1 [Crystal form A of ethanesulfonate salt]
OBSERVED MEASUREMENT: 3.7
--
MOLECULE: Cc1nc(N[C@H](C)c2cccc(S(F)(F)(F)(F)F)c2)c2cn(C3(CF)CC3)c(=O)cc2n1 [Crystal form A of fumarate salt]
OBSERVED MEASUREMENT: 4.3
--
MOLECULE: Cc1nc(N[C@H](C)c2cccc(S(F)(F)(F)(F)F)c2)c2cn(C3(CF)CC3)c(=O)cc2n1 [Crystal form B of citrate salt]
OBSERVED MEASUREMENT: 3.6

Switching to the query record.
Fill in: pH of filtrate of Cc1nc(N[C@H](C)c2cccc(S(F)(F)(F)(F)F)c2)c2cn(C3(CF)CC3)c(=O)cc2n1 [Crystal form A of methanesulfonate salt] is ___
4.0

###

Listed below: pH of filtrate values for each entry.
assay: Dynamic solubility in water, SGF, FaSSIF and FeSSIF; assay type: physicochemical; conditions: FeSSIF, 24 hours, 37 °C
Where a name gives a salt, the structure may show the parent alone.
I only need the number, thanks.

Known pH of filtrate results, listed for orientation:
MOLECULE: Cc1nc(N[C@H](C)c2cccc(S(F)(F)(F)(F)F)c2)c2cn(C3(CF)CC3)c(=O)cc2n1 [Crystal form A of ethanesulfonate salt]
pH of filtrate: 4.7
--
MOLECULE: Cc1nc(N[C@H](C)c2cccc(S(F)(F)(F)(F)F)c2)c2cn(C3(CF)CC3)c(=O)cc2n1 [Crystal form A of compound of formula I]
pH of filtrate: 5.1
--
MOLECULE: Cc1nc(N[C@H](C)c2cccc(S(F)(F)(F)(F)F)c2)c2cn(C3(CF)CC3)c(=O)cc2n1 [Crystal form A of fumarate salt]
pH of filtrate: 4.7
--
MOLECULE: Cc1nc(N[C@H](C)c2cccc(S(F)(F)(F)(F)F)c2)c2cn(C3(CF)CC3)c(=O)cc2n1 [Crystal form A of methanesulfonate salt]
pH of filtrate: 4.8

Fill in: pH of filtrate of Cc1nc(N[C@H](C)c2cccc(S(F)(F)(F)(F)F)c2)c2cn(C3(CF)CC3)c(=O)cc2n1 [Crystal form B of citrate salt] is ___
4.5
